The measured values listed here are drawn from paper PMC11879280.

Measured MIC of peptidomimetics by item
System: E. coli 0015
Conditions: E. coli 0015; MHB (melimine/Mel4 with 0.2% BSA, 0.01% acetic acid); mean MIC
Square brackets hold non-standard residues; d marks the D form. Peptide text beside a SMILES is read from it. Nspe(4-Br) = C[C@H](NCC(=O)O)c1ccc(Br)cc1; N(tridecyl)Gly = CCCCCCCCCCCCCNCC(=O)O; Nspe = C[C@H](NCC(=O)O)c1ccccc1; Nlys = NCCCCNCC(=O)O
Response body: numeric value in µg/mL, unit text excluded.

{"molecule": "C[C@@H](c1ccc(Br)cc1)N(CC(=O)N(CCCCN)CC(=O)N(CC(=O)N(CC(=O)N(CCCCN)CC(N)=O)[C@@H](C)c1ccc(Br)cc1)[C@@H](C)c1ccccc1)C(=O)CN(C(=O)CNCCCCN)[C@@H](C)c1ccccc1 [TM12] (H-[Nlys][Nspe][Nspe(4-Br)][Nlys][Nspe][Nspe(4-Br)][Nlys]-NH2)", "measured-target": "E. coli 0015", "MIC of peptidomimetics / µg/mL": 62.5}
{"molecule": "CCCCCCCCCCCCCNCC(=O)N(CCCCN)CC(=O)N(CC(=O)N(CC(=O)N(CCCCN)CC(=O)N(CCCCN)CC(N)=O)[C@@H](C)c1ccccc1)[C@@H](C)c1ccccc1 [TM15] (H-[N(tridecyl)Gly][Nlys][Nspe][Nspe][Nlys][Nlys]-NH2)", "measured-target": "E. coli 0015", "MIC of peptidomimetics / µg/mL": 15.6}
{"molecule": "C[C@@H](c1ccc(Br)cc1)N(CC(N)=O)C(=O)CN(C(=O)CN(CCCCN)C(=O)CN(C(=O)CN(C(=O)CNCCCCN)[C@@H](C)c1ccccc1)[C@@H](C)c1ccc(Br)cc1)[C@@H](C)c1ccccc1 [TM2] (H-[Nlys][Nspe][Nspe(4-Br)][Nlys][Nspe][Nspe(4-Br)]-NH2)", "measured-target": "E. coli 0015", "MIC of peptidomimetics / µg/mL": 62.5}

# context switch: different molecule, same MIC of peptidomimetics
// query MIC of peptidomimetics value for entry C[C@@H](c1ccccc1)N(CC(N)=O)C(=O)CN(CCCCN)C(=O)CN(C(=O)CN(C(=O)CN(CCCCN)C(=O)CN(C(=O)CN(C(=O)CN(CCCCN)C(=O)CN(C(=O)CN(C(=O)CNCCCCN)[C@@H](C)c1ccccc1)[C@@H](C)c1ccccc1)[C@@H](C)c1ccccc1)[C@@H](C)c1ccccc1)[C@@H](C)c1ccccc1)[C@@H](C)c1ccccc1 [TM6] (H-[Nlys][Nspe][Nspe][Nlys][Nspe][Nspe][Nlys][Nspe][Nspe][Nlys][Nspe]-NH2)
62.5

---

Catalogue of MIC of peptidomimetics readings, one per entry.
System: A. baumannii 005
Conditions: A. baumannii 005; MHB (melimine/Mel4 with 0.2% BSA, 0.01% acetic acid); mean MIC
Square brackets hold non-standard residues; d marks the D form. Peptide text beside a SMILES is read from it. Nspe(4-Br) = C[C@H](NCC(=O)O)c1ccc(Br)cc1; N(tridecyl)Gly = CCCCCCCCCCCCCNCC(=O)O; Nspe = C[C@H](NCC(=O)O)c1ccccc1; NDecylGly = CCCCCCCCCCNCC(=O)O; Nlys = NCCCCNCC(=O)O

For orientation, consider the following solved cases.
{"compound": "C[C@@H](c1ccc(Br)cc1)N(CC(=O)N(CCCCN)CC(=O)N(CC(=O)N(CC(=O)N(CCCCN)CC(N)=O)[C@@H](C)c1ccc(Br)cc1)[C@@H](C)c1ccc(Br)cc1)C(=O)CN(C(=O)CNCCCCN)[C@@H](C)c1ccc(Br)cc1 [TM14] (H-[Nlys][Nspe(4-Br)][Nspe(4-Br)][Nlys][Nspe(4-Br)][Nspe(4-Br)][Nlys]-NH2)", "MIC of peptidomimetics": "15.6 µg/mL"}
{"compound": "CCCCCCCCCCNCC(=O)N(CCCCN)CC(=O)N(CC(=O)N(CC(=O)N(CCCCN)CC(=O)N(CC(=O)N(CC(N)=O)[C@@H](C)c1ccccc1)[C@@H](C)c1ccccc1)[C@@H](C)c1ccccc1)[C@@H](C)c1ccccc1 [TM8] (H-[NDecylGly][Nlys][Nspe][Nspe][Nlys][Nspe][Nspe]-NH2)", "MIC of peptidomimetics": "7.8 µg/mL"}
{"compound": "C[C@@H](c1ccc(Br)cc1)N(CC(=O)N(CCCCN)CC(=O)N(CC(=O)N(CC(=O)N(CCCCN)CC(N)=O)[C@@H](C)c1ccc(Br)cc1)[C@@H](C)c1ccccc1)C(=O)CN(C(=O)CNCCCCN)[C@@H](C)c1ccccc1 [TM12] (H-[Nlys][Nspe][Nspe(4-Br)][Nlys][Nspe][Nspe(4-Br)][Nlys]-NH2)", "MIC of peptidomimetics": "62.5 µg/mL"}
{"compound": "CCCCCCCCCCCCCNCC(=O)N(CCCCN)CC(=O)N(CC(=O)N(CC(=O)N(CCCCN)CC(=O)N(CCCCN)CC(N)=O)[C@@H](C)c1ccccc1)[C@@H](C)c1ccccc1 [TM15] (H-[N(tridecyl)Gly][Nlys][Nspe][Nspe][Nlys][Nlys]-NH2)", "MIC of peptidomimetics": "62.5 µg/mL"}
{"compound": "C[C@@H](c1ccccc1)N(CC(N)=O)C(=O)CN(CCCCN)C(=O)CN(C(=O)CN(C(=O)CN(CCCCN)C(=O)CN(C(=O)CN(C(=O)CN(CCCCN)C(=O)CN(C(=O)CN(C(=O)CNCCCCN)[C@@H](C)c1ccccc1)[C@@H](C)c1ccccc1)[C@@H](C)c1ccccc1)[C@@H](C)c1ccccc1)[C@@H](C)c1ccccc1)[C@@H](C)c1ccccc1 [TM6] (H-[Nlys][Nspe][Nspe][Nlys][Nspe][Nspe][Nlys][Nspe][Nspe][Nlys][Nspe]-NH2)", "MIC of peptidomimetics": "7.8 µg/mL"}

Give the measured MIC of peptidomimetics of C[C@@H](c1ccc(Br)cc1)N(CC(N)=O)C(=O)CN(C(=O)CN(CCCCN)C(=O)CN(C(=O)CN(C(=O)CNCCCCN)[C@@H](C)c1ccccc1)[C@@H](C)c1ccc(Br)cc1)[C@@H](C)c1ccccc1 [TM2] (H-[Nlys][Nspe][Nspe(4-Br)][Nlys][Nspe][Nspe(4-Br)]-NH2) .
7.8 µg/mL

For the compound C[C@@H](c1ccccc1)N(CC(N)=O)C(=O)CN(C(=O)CN(CCCCN)C(=O)CN(C(=O)CN(C(=O)CN(CCCCN)C(=O)CN(C(=O)CN(C(=O)CN(CCCCN)C(=O)CN(C(=O)CN(C(=O)CNCCCCN)[C@@H](C)c1ccccc1)[C@@H](C)c1ccccc1)[C@@H](C)c1ccccc1)[C@@H](C)c1ccccc1)[C@@H](C)c1ccccc1)[C@@H](C)c1ccccc1)[C@@H](C)c1ccccc1 [TM1] (H-[Nlys][Nspe][Nspe][Nlys][Nspe][Nspe][Nlys][Nspe][Nspe][Nlys][Nspe][Nspe]-NH2) , what MIC of peptidomimetics is on record?
3.9 µg/mL

---

Reported MIC of peptidomimetics values for a set of compounds
System: K. pneumoniae JIE4212
Details: JIE4212
Square brackets hold non-standard residues; d marks the D form. Peptide text beside a SMILES is read from it. Nspe(4-Br) = C[C@H](NCC(=O)O)c1ccc(Br)cc1; N(tridecyl)Gly = CCCCCCCCCCCCCNCC(=O)O; Nspe = C[C@H](NCC(=O)O)c1ccccc1; NDecylGly = CCCCCCCCCCNCC(=O)O; Nlys = NCCCCNCC(=O)O

Solved cases (4 shown):
{"compound": "CCCCCCCCCCNCC(=O)N(CCCCN)CC(=O)N(CC(=O)N(CC(=O)N(CCCCN)CC(=O)N(CC(=O)N(CC(N)=O)[C@@H](C)c1ccccc1)[C@@H](C)c1ccccc1)[C@@H](C)c1ccccc1)[C@@H](C)c1ccccc1 [TM8] (H-[NDecylGly][Nlys][Nspe][Nspe][Nlys][Nspe][Nspe]-NH2)", "measured-result": "7.0 µmol/L"}
{"compound": "C[C@@H](c1ccc(Br)cc1)N(CC(=O)N(CCCCN)CC(=O)N(CC(=O)N(CC(=O)N(CCCCN)CC(N)=O)[C@@H](C)c1ccc(Br)cc1)[C@@H](C)c1ccc(Br)cc1)C(=O)CN(C(=O)CNCCCCN)[C@@H](C)c1ccc(Br)cc1 [TM14] (H-[Nlys][Nspe(4-Br)][Nspe(4-Br)][Nlys][Nspe(4-Br)][Nspe(4-Br)][Nlys]-NH2)", "measured-result": "23.0 µmol/L"}
{"compound": "C[C@@H](c1ccc(Br)cc1)N(CC(N)=O)C(=O)CN(C(=O)CN(CCCCN)C(=O)CN(C(=O)CN(C(=O)CNCCCCN)[C@@H](C)c1ccccc1)[C@@H](C)c1ccc(Br)cc1)[C@@H](C)c1ccccc1 [TM2] (H-[Nlys][Nspe][Nspe(4-Br)][Nlys][Nspe][Nspe(4-Br)]-NH2)", "measured-result": "58.1 µmol/L"}
{"compound": "C[C@@H](c1ccc(Br)cc1)N(CC(=O)N(CCCCN)CC(=O)N(CC(=O)N(CC(=O)N(CCCCN)CC(N)=O)[C@@H](C)c1ccc(Br)cc1)[C@@H](C)c1ccccc1)C(=O)CN(C(=O)CNCCCCN)[C@@H](C)c1ccccc1 [TM12] (H-[Nlys][Nspe][Nspe(4-Br)][Nlys][Nspe][Nspe(4-Br)][Nlys]-NH2)", "measured-result": "103.8 µmol/L"}

Here's the next entry for you.
I'd like to know its MIC of peptidomimetics. The compound in question is CCCCCCCCCCCCCNCC(=O)N(CCCCN)CC(=O)N(CC(=O)N(CC(=O)N(CCCCN)CC(=O)N(CCCCN)CC(N)=O)[C@@H](C)c1ccccc1)[C@@H](C)c1ccccc1 [TM15] (H-[N(tridecyl)Gly][Nlys][Nspe][Nspe][Nlys][Nlys]-NH2)
64.9 µmol/L
